Sourced from paper PMC10445290

- experiment_notes: Levels of PCB 95 and its hydroxylated metabolites in adipose, blood, brain and liver 24 h after a single oral dose (GC-MS/MS)
- Type: in vivo, mice
- measurement_parameters: female, Cyp2abfgs-null (KO), mouse, liver, po, 1 mg/kg, FKO, female Cyp2abfgs-null mice, single oral PCB 95 1.0 mg/kg, mean ± SD, read-out: Levels in liver
readout_kind: concentration at 24 h (ng/g)
Answers are plain numbers, in ng/g.

Example entries begin here.
Clc1ccc(Cl)c(-c2c(Cl)ccc(Cl)c2Cl)c1 109
Oc1cc(Cl)c(-c2cc(Cl)ccc2Cl)c(Cl)c1Cl 0.4
Oc1cc(Cl)c(Cl)c(-c2cc(Cl)ccc2Cl)c1Cl 6.2
Oc1c(O)c(Cl)c(-c2cc(Cl)ccc2Cl)c(Cl)c1Cl 1.2
Oc1cc(Cl)c(-c2c(Cl)ccc(Cl)c2Cl)cc1Cl 8.5

[in] For Oc1c(Cl)cc(Cl)c(-c2cc(Cl)ccc2Cl)c1Cl , what is its reported concentration at 24 h?
[out] 1.8

====

Please provide measured concentration at 24 h for the entries that follow.
- experiment_notes: Levels of PCB 95 and its hydroxylated metabolites in adipose, blood, brain and liver 24 h after a single oral dose (GC-MS/MS)
- Assay type: in vivo, mice
- measurement_parameters: male, C57BL/6 (wild-type), mouse, liver, po, 1 mg/kg, MWT, male wildtype mice, single oral PCB 95 1.0 mg/kg, mean ± SD, read-out: Levels in liver
Numbers only, in ng/g.

Guide cases for concentration at 24 h, answers given:
Oc1cc(Cl)c(Cl)c(-c2cc(Cl)ccc2Cl)c1Cl 3.3
Clc1ccc(Cl)c(-c2c(Cl)ccc(Cl)c2Cl)c1 96.3
Oc1c(Cl)cc(Cl)c(-c2cc(Cl)ccc2Cl)c1Cl 0.7

Below are 3 compounds. Give each one its concentration at 24 h.
1. Oc1cc(Cl)c(-c2cc(Cl)ccc2Cl)c(Cl)c1Cl
2. Oc1c(O)c(Cl)c(-c2cc(Cl)ccc2Cl)c(Cl)c1Cl
3. Oc1cc(Cl)c(-c2c(Cl)ccc(Cl)c2Cl)cc1Cl

[out]
1: 2; 2: 3.4; 3: 5.7

====

Consider the following compounds; for each one, report its concentration at 24 h.
- experiment_notes: Levels of PCB 95 and its hydroxylated metabolites in adipose, blood, brain and liver 24 h after a single oral dose (GC-MS/MS)
- Assay type: in vivo, mice
- measurement_parameters: male, Cyp2abfgs-null (KO), mouse, brain, po, 1 mg/kg, MKO, male Cyp2abfgs-null mice, single oral PCB 95 1.0 mg/kg, mean ± SD, read-out: Levels in brain
One number for each entry, in ng/g.

Oc1cc(Cl)c(-c2c(Cl)ccc(Cl)c2Cl)cc1Cl 0.2

Consider the additional compound presented here.
[in] Look at this compound and give its reported concentration at 24 h. Clc1ccc(Cl)c(-c2c(Cl)ccc(Cl)c2Cl)c1
[out] 13.1

====

- experiment_notes: Levels of PCB 95 and its hydroxylated metabolites in adipose, blood, brain and liver 24 h after a single oral dose (GC-MS/MS)
- Type: in vivo, mice
- measurement_parameters: female, C57BL/6 (wild-type), mouse, liver, po, 1 mg/kg, FWT, female wildtype mice, single oral PCB 95 1.0 mg/kg, mean ± SD, read-out: Levels in liver
Give measured concentration at 24 h for each item. Keep answers brief.
Numeric answer plus unit only.

Clc1ccc(Cl)c(-c2c(Cl)ccc(Cl)c2Cl)c1 120 ng/g

Could you tell me concentration at 24 h for each of these molecules? They are listed below.
1. Oc1cc(Cl)c(Cl)c(-c2cc(Cl)ccc2Cl)c1Cl
2. Oc1cc(Cl)c(-c2c(Cl)ccc(Cl)c2Cl)cc1Cl
3. Oc1c(O)c(Cl)c(-c2cc(Cl)ccc2Cl)c(Cl)c1Cl
4. Oc1cc(Cl)c(-c2cc(Cl)ccc2Cl)c(Cl)c1Cl
5. Oc1c(Cl)cc(Cl)c(-c2cc(Cl)ccc2Cl)c1Cl

[out]
["3.8 ng/g", "3.7 ng/g", "2.2 ng/g", "1 ng/g", "1.2 ng/g"]

====

- experiment_notes: Levels of PCB 95 and its hydroxylated metabolites in adipose, blood, brain and liver 24 h after a single oral dose (GC-MS/MS)
- Type: in vivo, mice
- measurement_parameters: female, C57BL/6 (wild-type), mouse, whole blood, po, 1 mg/kg, FWT, female wildtype mice, single oral PCB 95 1.0 mg/kg, mean ± SD, read-out: Levels in blood
readout_kind: concentration at 24 h (ng/g)
Give bare numbers, in ng/g.

Example results:
Oc1cc(Cl)c(Cl)c(-c2cc(Cl)ccc2Cl)c1Cl 0.9
Oc1c(O)c(Cl)c(-c2cc(Cl)ccc2Cl)c(Cl)c1Cl 5.2
Oc1cc(Cl)c(-c2c(Cl)ccc(Cl)c2Cl)cc1Cl 2.2
Clc1ccc(Cl)c(-c2c(Cl)ccc(Cl)c2Cl)c1 9.1
Oc1c(Cl)cc(Cl)c(-c2cc(Cl)ccc2Cl)c1Cl 1

Now examine the next entry.
[in] Give its concentration at 24 h value. Item: Oc1cc(Cl)c(-c2cc(Cl)ccc2Cl)c(Cl)c1Cl
[out] 1.5

====

- experiment_notes: Levels of PCB 95 and its hydroxylated metabolites in adipose, blood, brain and liver 24 h after a single oral dose (GC-MS/MS)
- Type: in vivo, mice
- measurement_parameters: male, C57BL/6 (wild-type), mouse, adipose, po, 1 mg/kg, MWT, male wildtype mice, single oral PCB 95 1.0 mg/kg, mean ± SD, read-out: Levels in adipose
For each entry below, report its log10(concentration at 24 h) value.
The common logarithm of concentration at 24 h in ng/g is what is listed.

Oc1c(O)c(Cl)c(-c2cc(Cl)ccc2Cl)c(Cl)c1Cl -0.05
Clc1ccc(Cl)c(-c2c(Cl)ccc(Cl)c2Cl)c1 3.12
Oc1cc(Cl)c(-c2c(Cl)ccc(Cl)c2Cl)cc1Cl 0.32
Oc1cc(Cl)c(-c2cc(Cl)ccc2Cl)c(Cl)c1Cl -0.30

Read the next record carefully.
[in] Reported log10(concentration at 24 h) for Oc1cc(Cl)c(Cl)c(-c2cc(Cl)ccc2Cl)c1Cl : what is it?
[out] 0.26

====

Exercise: for every item that follows, state its recorded concentration at 24 h.
- experiment_notes: Levels of PCB 95 and its hydroxylated metabolites in adipose, blood, brain and liver 24 h after a single oral dose (GC-MS/MS)
- Assay type: in vivo, mice
- measurement_parameters: male, Cyp2abfgs-null (KO), mouse, liver, po, 1 mg/kg, MKO, male Cyp2abfgs-null mice, single oral PCB 95 1.0 mg/kg, mean ± SD, read-out: Levels in liver

Lab note: each compound below needs its concentration at 24 h filled in.
1. Clc1ccc(Cl)c(-c2c(Cl)ccc(Cl)c2Cl)c1 [PCB 95, 2,2′,3,5′,6-pentachlorobiphenyl]
2. Oc1cc(Cl)c(Cl)c(-c2cc(Cl)ccc2Cl)c1Cl [5-95, 2,2',3,5',6-pentachlorobiphenyl-5-ol]
3. Oc1c(O)c(Cl)c(-c2cc(Cl)ccc2Cl)c(Cl)c1Cl [4,5-95, 2,2',3,5',6-pentachlorobiphenyl-4,5-diol]
4. Oc1cc(Cl)c(-c2c(Cl)ccc(Cl)c2Cl)cc1Cl [4'-95]
5. Oc1cc(Cl)c(-c2cc(Cl)ccc2Cl)c(Cl)c1Cl [4-95, 2,2',3,5',6-pentachlorobiphenyl-4-ol]
6. Oc1c(Cl)cc(Cl)c(-c2cc(Cl)ccc2Cl)c1Cl [3-103, 2,2',4,5',6-pentachlorobiphenyl-3-ol]

[out]
146 ng/g
3.7 ng/g
2.8 ng/g
7.7 ng/g
1.1 ng/g
1 ng/g

====

- experiment_notes: Levels of PCB 95 and its hydroxylated metabolites in adipose, blood, brain and liver 24 h after a single oral dose (GC-MS/MS)
- Assay type: in vivo, mice
- measurement_parameters: female, Cyp2abfgs-null (KO), mouse, whole blood, po, 1 mg/kg, FKO, female Cyp2abfgs-null mice, single oral PCB 95 1.0 mg/kg, mean ± SD, read-out: Levels in blood
Threshold rule: concentration at 24 h greater than or equal to 1 ng/g is Condition met; below that, Condition not met.

Solved entries (count: 5):
compound	cat
Oc1cc(Cl)c(Cl)c(-c2cc(Cl)ccc2Cl)c1Cl [5-95, 2,2',3,5',6-pentachlorobiphenyl-5-ol]	Condition not met
Clc1ccc(Cl)c(-c2c(Cl)ccc(Cl)c2Cl)c1 [PCB 95, 2,2′,3,5′,6-pentachlorobiphenyl]	Condition met
Oc1c(Cl)cc(Cl)c(-c2cc(Cl)ccc2Cl)c1Cl [3-103, 2,2',4,5',6-pentachlorobiphenyl-3-ol]	Condition not met
Oc1cc(Cl)c(-c2c(Cl)ccc(Cl)c2Cl)cc1Cl [4'-95]	Condition met
Oc1c(O)c(Cl)c(-c2cc(Cl)ccc2Cl)c(Cl)c1Cl [4,5-95, 2,2',3,5',6-pentachlorobiphenyl-4,5-diol]	Condition met

Continue with the next compound.
[in] Does concentration at 24 h meet or surpass 1 ng/g for Oc1cc(Cl)c(-c2cc(Cl)ccc2Cl)c(Cl)c1Cl [4-95, 2,2',3,5',6-pentachlorobiphenyl-4-ol] ?
[out] Condition not met
